testTarget: T1, cynomolgus SIRPβ1v3 (XP_005568593) extracellular domain + His-tag (cynomolgus monkey)
T1 construct: SPR analyte; also called Cyno SIRPβ1v3 XP_005568593; cynoSIRPβ1v3; not shown: His-tag
T1 chain: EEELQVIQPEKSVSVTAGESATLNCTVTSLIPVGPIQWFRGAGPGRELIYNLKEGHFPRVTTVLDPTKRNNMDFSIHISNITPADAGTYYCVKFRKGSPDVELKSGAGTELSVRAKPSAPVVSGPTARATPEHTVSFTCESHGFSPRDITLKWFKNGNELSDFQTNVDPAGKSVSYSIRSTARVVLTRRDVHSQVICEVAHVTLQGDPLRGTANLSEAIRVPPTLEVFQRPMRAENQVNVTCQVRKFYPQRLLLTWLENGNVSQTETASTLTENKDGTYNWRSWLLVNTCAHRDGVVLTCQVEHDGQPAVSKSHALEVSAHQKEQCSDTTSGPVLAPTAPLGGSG
experimentSummary: SPR, antibody captured, ECD-His analyte
readoutType: Kd (nM)
The reply should be a number in nM, with the unit left off.

Antibody E5 (antibody, human IgG1, kappa, L234A L235A, V domains shown) VH: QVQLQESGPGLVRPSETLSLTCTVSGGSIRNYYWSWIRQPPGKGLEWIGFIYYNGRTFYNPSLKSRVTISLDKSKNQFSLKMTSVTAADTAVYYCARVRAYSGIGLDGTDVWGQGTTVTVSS VL: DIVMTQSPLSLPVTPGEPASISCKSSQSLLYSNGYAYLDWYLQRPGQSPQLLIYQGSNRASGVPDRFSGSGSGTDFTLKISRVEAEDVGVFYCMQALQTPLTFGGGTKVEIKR
22.6

Then this binder:
## Input Requested read-out: Kd. Entry: Antibody E1 (antibody, human IgG1, kappa, L234A L235A, V domains shown) VH: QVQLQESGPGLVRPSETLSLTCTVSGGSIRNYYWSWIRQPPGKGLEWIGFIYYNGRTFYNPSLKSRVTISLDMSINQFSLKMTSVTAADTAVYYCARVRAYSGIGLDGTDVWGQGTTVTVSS VL: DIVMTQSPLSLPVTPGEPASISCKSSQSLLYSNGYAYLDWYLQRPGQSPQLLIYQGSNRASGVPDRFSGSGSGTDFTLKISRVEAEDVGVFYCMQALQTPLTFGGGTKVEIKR
## Output 10.8

Data origin: patent US20230012273A1
